Experiment: Apparent permeability from basolateral to apical side in human Caco2 cells at 10 uM after 2 hrs by LC-MS/MS analysis
Format: ADME, cell-based
Settings: Caco-2
test_readout: Papp B→A at 2 h, 10 µM (×10⁻⁶ cm/s)
Numbers only, in ×10⁻⁶ cm/s.

| molecule | test_readout | observed_result |
| --- | --- | --- |
| COc1cc2c(Oc3ccc(NS(=O)(=O)c4cc(F)ccc4F)cc3F)ccnc2cc1OCCCN1CCCC(C)C1 (configuration not stated) | Papp B→A at 2 h, 10 µM | 14.6 |

Now consider a different molecule.
Prompt: So what's the measured Papp B→A at 2 h, 10 µM for this one? COc1cc2c(Oc3ccc(NS(=O)(=O)c4cc(F)ccc4F)cc3F)ccnc2cc1OCCCN1CCN(C)CC1
Response: 17

----------
Molecular target: Hepatocyte growth factor receptor (Homo sapiens, UniProt P08581)
Sequence (P08581 whole entry): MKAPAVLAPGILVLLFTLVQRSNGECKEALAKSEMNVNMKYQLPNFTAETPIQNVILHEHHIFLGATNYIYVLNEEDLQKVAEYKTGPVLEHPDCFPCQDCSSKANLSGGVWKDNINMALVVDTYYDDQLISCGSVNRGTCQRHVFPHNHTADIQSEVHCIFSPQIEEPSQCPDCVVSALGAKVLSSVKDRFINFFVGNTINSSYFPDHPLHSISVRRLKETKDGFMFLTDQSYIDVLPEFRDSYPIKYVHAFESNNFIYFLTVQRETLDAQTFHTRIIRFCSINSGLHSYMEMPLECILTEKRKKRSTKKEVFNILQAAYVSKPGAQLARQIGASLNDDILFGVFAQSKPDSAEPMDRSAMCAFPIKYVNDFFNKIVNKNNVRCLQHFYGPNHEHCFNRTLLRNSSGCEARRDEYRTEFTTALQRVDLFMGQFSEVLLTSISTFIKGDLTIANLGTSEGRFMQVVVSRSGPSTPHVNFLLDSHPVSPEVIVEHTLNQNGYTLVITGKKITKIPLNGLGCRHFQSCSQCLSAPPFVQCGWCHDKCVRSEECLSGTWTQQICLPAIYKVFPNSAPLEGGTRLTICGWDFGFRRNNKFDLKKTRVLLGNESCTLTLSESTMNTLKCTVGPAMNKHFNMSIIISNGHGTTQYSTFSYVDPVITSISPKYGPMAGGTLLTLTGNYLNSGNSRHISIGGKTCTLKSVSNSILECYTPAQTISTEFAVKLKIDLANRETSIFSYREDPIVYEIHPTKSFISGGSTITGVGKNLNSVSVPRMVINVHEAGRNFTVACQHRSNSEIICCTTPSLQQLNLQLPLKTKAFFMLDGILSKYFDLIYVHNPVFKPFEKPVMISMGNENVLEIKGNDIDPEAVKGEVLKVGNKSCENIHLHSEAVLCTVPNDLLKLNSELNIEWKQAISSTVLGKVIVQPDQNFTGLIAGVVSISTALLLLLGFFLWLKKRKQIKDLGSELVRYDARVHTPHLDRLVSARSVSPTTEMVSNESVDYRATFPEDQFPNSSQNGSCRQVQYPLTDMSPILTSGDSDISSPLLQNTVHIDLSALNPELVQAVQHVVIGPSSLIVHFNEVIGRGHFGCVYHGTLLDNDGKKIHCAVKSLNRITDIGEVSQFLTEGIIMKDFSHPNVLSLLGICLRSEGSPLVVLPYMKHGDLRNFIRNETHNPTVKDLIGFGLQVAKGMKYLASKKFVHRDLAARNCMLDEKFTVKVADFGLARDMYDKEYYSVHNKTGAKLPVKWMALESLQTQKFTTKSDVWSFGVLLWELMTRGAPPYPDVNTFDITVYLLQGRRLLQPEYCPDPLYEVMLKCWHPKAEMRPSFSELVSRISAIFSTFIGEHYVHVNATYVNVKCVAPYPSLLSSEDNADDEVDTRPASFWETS
Experiment: Inhibition of c-MET (unknown origin) using fluorescence labeled peptide as substrate at 10 uM by IMAP assay relative to control
test_readout: Efficacy

Provide Efficacy for all items below, preserving their order.
1. COc1cc2c(Oc3ccc(NS(=O)(=O)c4c(F)cccc4F)cc3F)ccnc2cc1OCCCN1CCN(C)CC1
2. COc1cc2c(Oc3ccc(NS(=O)(=O)c4cc(F)ccc4F)cc3F)ccnc2cc1OCCCN1CCCC(C)C1 (centres undefined)

Response:
1. 83 to 100%
2. 83 to 100%

Provide Efficacy for all items below, preserving their order.
1. COc1cc2c(Oc3ccc(NS(=O)(=O)c4cc(F)ccc4F)cc3F)ccnc2cc1OCCCN1CCN(C)CC1
2. COc1cc2c(Oc3ccc(NS(=O)(=O)c4ccccc4C(F)(F)F)cc3F)ccnc2cc1OCCCN1CCN(C)CC1

Response:
["83 to 100%", "83 to 100%"]

----------
Biological target: Tyrosine-protein kinase receptor UFO (Homo sapiens)
Sequence (P30530 whole entry): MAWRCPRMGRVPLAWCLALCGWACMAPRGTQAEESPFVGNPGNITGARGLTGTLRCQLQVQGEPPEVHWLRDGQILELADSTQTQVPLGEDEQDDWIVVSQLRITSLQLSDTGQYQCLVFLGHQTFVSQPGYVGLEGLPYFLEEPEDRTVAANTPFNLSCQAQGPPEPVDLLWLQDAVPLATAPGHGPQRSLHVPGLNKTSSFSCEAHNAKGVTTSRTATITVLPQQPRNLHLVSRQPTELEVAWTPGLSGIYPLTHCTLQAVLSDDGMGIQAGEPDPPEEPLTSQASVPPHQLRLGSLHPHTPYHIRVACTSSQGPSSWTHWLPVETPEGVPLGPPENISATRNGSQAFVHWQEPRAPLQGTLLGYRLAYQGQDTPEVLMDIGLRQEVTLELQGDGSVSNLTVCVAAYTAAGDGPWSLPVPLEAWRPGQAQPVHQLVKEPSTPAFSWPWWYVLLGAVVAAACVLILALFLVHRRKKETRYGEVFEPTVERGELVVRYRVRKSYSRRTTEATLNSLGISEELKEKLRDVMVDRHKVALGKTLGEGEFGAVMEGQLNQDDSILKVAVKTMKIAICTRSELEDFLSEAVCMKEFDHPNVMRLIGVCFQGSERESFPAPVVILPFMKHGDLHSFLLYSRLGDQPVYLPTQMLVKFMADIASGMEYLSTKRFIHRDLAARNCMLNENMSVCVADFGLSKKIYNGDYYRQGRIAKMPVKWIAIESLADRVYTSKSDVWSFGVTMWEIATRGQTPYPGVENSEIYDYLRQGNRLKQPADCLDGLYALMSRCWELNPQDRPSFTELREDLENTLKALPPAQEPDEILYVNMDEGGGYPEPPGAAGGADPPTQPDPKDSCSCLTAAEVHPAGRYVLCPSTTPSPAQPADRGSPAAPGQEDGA
Assay: Inhibition of AXL (unknown origin)
The threshold is 0.03 µM. Values of IC50 beneath it are tagged Satisfied; values meeting or exceeding it are tagged Not satisfied.

| compound | assigned_label |
| --- | --- |
| COc1cc2c(Oc3ccc(NS(=O)(=O)c4ccccc4C(F)(F)F)cc3F)ccnc2cc1OCCCN1CCOCC1 | Satisfied |
| COc1cc2c(Oc3ccc(NS(=O)(=O)c4ccccc4C(F)(F)F)cc3F)ccnc2cc1OCCCN1CCC(C)CC1 | Not satisfied |
| COc1cc2c(Oc3ccc(NS(=O)(=O)c4ccccc4OC(F)(F)F)cc3F)ccnc2cc1OCCCN1CCN(C)CC1 | Not satisfied |
| COc1cc2c(Oc3ccc(NS(=O)(=O)c4cc(F)ccc4F)cc3F)ccnc2cc1OCCCN1CCN(C)CC1 | Satisfied |

Prompt: For COc1cc2c(Oc3ccc(NS(=O)(=O)c4cc(F)ccc4F)cc3F)ccnc2cc1OCCCN1CCCC(C)C1 (configuration not stated) , is the recorded IC50 below the cut-off of 0.03 µM?
Response: Satisfied

Prompt: For COc1cc2c(Oc3ccc(NS(=O)(=O)c4c(F)cccc4F)cc3F)ccnc2cc1OCCCN1CCN(C)CC1 , is the recorded IC50 below the cut-off of 0.03 µM?
Response: Not satisfied

Prompt: For COc1cc2c(Oc3ccc(NS(=O)(=O)c4ccccc4C(F)(F)F)cc3F)ccnc2cc1OCCCN1CCN(C)CC1 , is the recorded IC50 below the cut-off of 0.03 µM?
Response: Satisfied
